The reported measurements were obtained from PubChem BioAssay AID2533.

Assay target: Pyruvate kinase PKM (Homo sapiens)
Measurement protocol: Confirmation Concentration-Response Assay for Activators of Human Muscle isoform 2 Pyruvate Kinase: for Probe SAR; also: nearly all actives have a fitted effect of over 60% in size
Test context: purified PKM2, ATP generation, Kinase-Glo luminescence; series mostly up to 57.5 µM
Records with an inconclusive call do not appear. Calls of active or inactive are those of the source. Calls follow the shape of the dose curve; as a rule, active = well fitted activation curve with a large enough effect; inconclusive = small, poorly fitted or top-dose-only effect; inactive = flat fitted curve, though single readings scatter.
Pick from TRUE for active, FALSE for inactive when you respond.

Illustrative cases are given below, each with its answer.
Chemical string	Assay target	Assigned class
Nc1ccc(S(=O)(=O)N2CCN(S(=O)(=O)c3c(F)cccc3F)CC2)cc1	Pyruvate kinase PKM (Homo sapiens)	TRUE
O=S1(=O)N=C(Oc2ccccc2Br)c2ccccc21	Pyruvate kinase PKM (Homo sapiens)	FALSE

## Input What call does the record list for `Cc1cc(C)n2c(Nc3ccccc3)c(-c3ccc(C)o3)nc2n1` ?
## Output TRUE

====

Assay target: Pyruvate kinase PKM (Homo sapiens) (UniProt P14618)
Sequence (P14618 whole entry, looked up, canonical isoform): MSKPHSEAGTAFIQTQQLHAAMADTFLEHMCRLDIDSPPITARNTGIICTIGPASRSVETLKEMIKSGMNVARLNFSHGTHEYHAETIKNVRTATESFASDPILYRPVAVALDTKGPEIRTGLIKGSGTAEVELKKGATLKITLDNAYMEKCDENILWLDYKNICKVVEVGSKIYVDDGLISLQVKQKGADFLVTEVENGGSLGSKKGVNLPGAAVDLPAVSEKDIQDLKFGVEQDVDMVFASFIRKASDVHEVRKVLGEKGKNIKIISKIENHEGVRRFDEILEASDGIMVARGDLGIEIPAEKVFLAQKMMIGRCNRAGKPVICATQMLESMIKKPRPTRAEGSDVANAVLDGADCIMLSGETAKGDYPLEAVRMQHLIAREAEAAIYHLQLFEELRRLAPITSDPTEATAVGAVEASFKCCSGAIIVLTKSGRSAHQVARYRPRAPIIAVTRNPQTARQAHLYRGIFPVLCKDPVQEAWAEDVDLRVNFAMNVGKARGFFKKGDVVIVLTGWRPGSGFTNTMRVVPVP
Measurement protocol: Confirmation Concentration-Response Assay for Activators of Human Muscle isoform 2 Pyruvate Kinase: for Probe SAR; also: nearly all actives have a fitted effect of over 60% in size
Test context: purified PKM2, ATP generation, Kinase-Glo luminescence; series mostly up to 57.5 µM
Records with an inconclusive call do not appear. The source made the active and inactive calls. Calls follow the shape of the dose curve; as a rule, active = well fitted activation curve with a large enough effect; inconclusive = small, poorly fitted or top-dose-only effect; inactive = flat fitted curve, though single readings scatter.
Pick from TRUE = active, FALSE = inactive when you respond.

Illustrative cases are given below, each with its answer.
Compound	Assigned class
O=S(=O)(c1cccc(O)c1)N1CCN(S(=O)(=O)c2c(F)cccc2F)CC1	TRUE
CN(C)c1cccc(S(=O)(=O)N2CCCN(S(=O)(=O)c3ccc4c(c3)OCCO4)CC2)c1	TRUE
COc1cc(F)c(S(=O)(=O)N2CCCN(S(=O)(=O)c3ccc4c(c3)OCCO4)CC2)c(F)c1	TRUE
Cc1ccc(NS(=O)(=O)c2cc3c(cc2F)NC(=O)CC3)cc1C	TRUE
Cc1ccccc1Nc1c(-c2ccc(Cl)s2)nc2ccccn12	FALSE

## Input What call does the record list for `Cc1ccc(-c2nc3ccc(Cl)cn3c2Nc2ccccc2)o1` ?
## Output FALSE

## Input And then `O=C1c2ccccc2C(=O)N1c1cccc(=O)[nH]1` , what is it?
## Output FALSE

## Input And then `COc1cc(F)c(S(=O)(=O)N2CCN(S(=O)(=O)c3cccc(N)c3)CC2)c(F)c1` , what is it?
## Output TRUE

## Input And then `O=C1CCc2cc(S(=O)(=O)Nc3ccc4c(c3)OCCO4)ccc2N1` , what is it?
## Output TRUE

## Input And then COc1cccc(Cn2ncc3c4sc(S(C)=O)cc4n(C)c3c2=O)c1 (configuration not stated) , what is it?
## Output TRUE

## Input And then `O=C1c2ccccc2C(=O)N1c1ccc2ccccc2n1` , what is it?
## Output FALSE

====

Assay target: Pyruvate kinase PKM (Homo sapiens) (UniProt P14618)
Measurement protocol: Confirmation Concentration-Response Assay for Activators of Human Muscle isoform 2 Pyruvate Kinase: for Probe SAR; also: nearly all actives have a fitted effect of over 60% in size; also: potency is read from the fitted curve at half-maximal effect
Test context: purified PKM2, ATP generation, Kinase-Glo luminescence; series mostly up to 57.5 µM
Results filed as inconclusive are left out. Active and inactive are the calls of the source. The call rests on the fitted dose curve; in most records, active means well fitted activation curve with a large enough effect; inconclusive means small, poorly fitted or top-dose-only effect; inactive means flat fitted curve, though single readings scatter.
Parameter: Potency

Chemical string	Potency
Cc1ccccc1OC1=NS(=O)(=O)c2ccccc21	inactive
O=C1CCc2cc(Cl)c(S(=O)(=O)Nc3ccc(Cl)c(Cl)c3)cc2N1	0.073 µM (active)
O=C1c2ccccc2C(=O)N1c1nccs1	inactive
Nc1ccc(S(=O)(=O)N2CCCN(S(=O)(=O)c3ccc4c(c3)OCCO4)CC2)cc1	1.03 µM (active)
Cc1cccc(NS(=O)(=O)c2ccc3c(c2)CCC(=O)N3)c1	1.83 µM (active)
CCSC1=NS(=O)(=O)c2ccccc21	inactive

Value sought for every listed compound: Potency.
1. Cc1ccc(NS(=O)(=O)c2ccc(N3CCCC3=O)cc2)cc1C
2. Nc1cccc(S(=O)(=O)N2CCN(S(=O)(=O)c3c(F)cccc3F)CC2)c1
3. O=C1CCc2cc([S+](=O)([O-])Nc3ccc(N[S+](=O)([O-])c4ccc5c(c4)CCC(=O)N5)cc3)ccc2N1

## Output
inactive
0.13 µM (active)
inactive

Value sought for every listed compound: Potency.
1. O=C1c2ccccc2C(=O)N1c1ccc2ncccc2c1
2. O=C1c2ccccc2C(=O)N1c1cnc2ccccc2c1
3. Cc1ccc(C)c(NC2=NS(=O)(=O)c3ccccc32)c1
4. Cc1ccccc1N(C)C1=N[S+](=O)([O-])c2ccccc21
5. Cc1ccc(-c2nc3cnccn3c2Nc2ccc(C(C)C)cc2)o1
6. CC(=O)Nc1ccccc1OC1=N[S+](=O)([O-])c2ccccc21
7. Cc1ccc2nc(-c3ccc(C)o3)c(Nc3ccc4c(c3)OCO4)n2c1

## Output
inactive
inactive
inactive
inactive
inactive
inactive
inactive

Value sought for every listed compound: Potency.
1. COc1cc(F)c(S(=O)(=O)N2CCN(S(=O)(=O)c3cccs3)CC2)c(F)c1
2. O=S1(=O)N=C(Sc2ccc3c(c2)OCCO3)c2ccccc21
3. Cc1ccc2nc(-c3ccco3)c(Nc3ccccc3)n2c1

## Output
1. 0.0366 µM (active)
2. inactive
3. inactive

====

Assay target: Pyruvate kinase PKM (Homo sapiens)
Measurement protocol: Confirmation Concentration-Response Assay for Activators of Human Muscle isoform 2 Pyruvate Kinase: for Probe SAR; also: nearly all actives have a fitted effect of over 60% in size
Test context: purified PKM2, ATP generation, Kinase-Glo luminescence; series mostly up to 57.5 µM
Results filed as inconclusive are left out. Calls of active or inactive are those of the source. Calls follow the shape of the dose curve; as a rule, active = well fitted activation curve with a large enough effect; inconclusive = small, poorly fitted or top-dose-only effect; inactive = flat fitted curve, though single readings scatter.
Pick from T for active, F for inactive when you respond.

Illustrative cases are given below, each with its answer.
Chemical string	Assigned class
Cc1ccc(-c2nc3cccc(C)n3c2Nc2ccc(F)cc2)o1	F
O=S1(=O)N=C(N2CCOCC2)c2ccccc21	F

Next, consider the following compound.
## Input What call does the record list for `COc1cc(F)c(S(=O)(=O)N2CCCN(S(=O)(=O)c3ccc(N)cc3)CC2)c(F)c1` ?
## Output T

====

Assay target: Pyruvate kinase PKM (Homo sapiens) (UniProt P14618)
Measurement protocol: Confirmation Concentration-Response Assay for Activators of Human Muscle isoform 2 Pyruvate Kinase: for Probe SAR; also: nearly all actives have a fitted effect of over 60% in size; also: potency is read from the fitted curve at half-maximal effect
Test context: purified PKM2, ATP generation, Kinase-Glo luminescence; series mostly up to 57.5 µM
Inconclusive results are not listed. Activity calls are given as the source filed them. Calls follow the shape of the dose curve; as a rule, active = well fitted activation curve with a large enough effect; inconclusive = small, poorly fitted or top-dose-only effect; inactive = flat fitted curve, though single readings scatter.
Parameter: Potency

Chemical string	Assay target	Parameter	Test result
O=C1c2ccccc2C(=O)N1c1ccccc1O	Pyruvate kinase PKM (Homo sapiens) (UniProt P14618)	Potency	inactive
COc1ccc(N2C(=O)c3ccccc3C2=O)cc1	Pyruvate kinase PKM (Homo sapiens) (UniProt P14618)	Potency	inactive
Cc1ccc(NS(=O)(=O)c2ccc3c(c2)CCC(=O)N3)cc1	Pyruvate kinase PKM (Homo sapiens) (UniProt P14618)	Potency	5.8 µM (active)
O=S1(=O)N=C(Oc2cccc(C(F)(F)F)c2)c2ccccc21	Pyruvate kinase PKM (Homo sapiens) (UniProt P14618)	Potency	inactive
O=S1(=O)N=C(Oc2cccc(-c3ccccc3)c2)c2ccccc21	Pyruvate kinase PKM (Homo sapiens) (UniProt P14618)	Potency	inactive
O=[S+]1([O-])N=C(Oc2cccnc2)c2ccccc21	Pyruvate kinase PKM (Homo sapiens) (UniProt P14618)	Potency	inactive

Value sought for every listed compound: Potency.
1. O=S1(=O)N=C(Oc2cccc3ccccc23)c2ccccc21
2. O=S(=O)(Nc1ccc(O)c(NS(=O)(=O)c2ccccc2)c1)c1ccccc1

## Output
["inactive", "inactive"]

====

Assay target: Pyruvate kinase PKM (Homo sapiens)
Measurement protocol: Confirmation Concentration-Response Assay for Activators of Human Muscle isoform 2 Pyruvate Kinase: for Probe SAR; also: nearly all actives have a fitted effect of over 60% in size
Test context: purified PKM2, ATP generation, Kinase-Glo luminescence; series mostly up to 57.5 µM
Results filed as inconclusive are left out. Active and inactive are the calls of the source. The call rests on the fitted dose curve; in most records, active means well fitted activation curve with a large enough effect; inconclusive means small, poorly fitted or top-dose-only effect; inactive means flat fitted curve, though single readings scatter.
Pick from active, inactive when you respond.

Illustrative cases are given below, each with its answer.
Compound	Assigned class
COc1cc(F)c(S(=O)(=O)N2CCN(S(=O)(=O)c3ccc(N)cc3)CC2)c(F)c1	active
Cc1ccc(N2C(=O)c3ccccc3C2=O)c(C)c1	inactive
COc1ccc(-c2nc3cccc(C)n3c2Nc2ccc(C)cc2)cc1	inactive
O=C1CCc2cc(S(=O)(=O)Nc3ccc(F)cc3)ccc2N1	active
O=C1CCc2cc(S(=O)(=O)Nc3ccccn3)ccc2N1	inactive

## Input What call does the record list for `Nc1ccccc1OC1=NS(=O)(=O)c2ccccc21` ?
## Output inactive

## Input And then `Nc1ccc(S(=O)(=O)N2CCN(S(=O)(=O)c3ccc4c(c3)OCCO4)CC2)cc1` , what is it?
## Output active

## Input And then `Cc1ccc(NS(=O)(=O)c2cc3c(cc2Cl)CCC(=O)N3)cc1C` , what is it?
## Output active

## Input And then `COc1ccc(NS(=O)(=O)c2ccccc2)cc1NS(=O)(=O)c1ccccc1` , what is it?
## Output inactive

## Input And then `Cc1ccc(NS(=O)(=O)c2ccc3c(c2)NC(=O)CO3)cc1C` , what is it?
## Output active

## Input And then Cn1c2cc(S(C)=O)sc2c2cnn(Cc3cccc(O)c3)c(=O)c21 (stereo unspecified) , what is it?
## Output active
